These measurements were taken from ChEMBL document CHEMBL5303304.

System: U2OS
Experiment: Incucyte cell viability with U2OS; further: unitless GR value; below 1 slowed growth and below 0 cell loss
Format: toxicity, cell-based
Details: human, 12 h, 10 µM, compound concentration 10 uM, replicate number 2
Simple rule here: Growth Rate less than 0.9 is Met, otherwise Not met.

Determine if CCc1cncnc1N1CCN(Cc2nc3cc(C(F)(F)F)ccc3[nH]2)CC1 shows Growth Rate strictly lower than 0.9. Met

Please answer likewise for COC1(C#Cc2ccc(Cl)c(-c3ncc4c(n3)-c3sc(NC(C)=O)nc3CC4)c2)CCN(C)CC1 Met

Please answer likewise for COc1cc(C(=O)NCCOCCOCCOCC(=O)N[C@H](C(=O)N2C[C@H](O)C[C@H]2C(=O)NCc2ccc(-c3scnc3C)cc2)C(C)(C)C)ccc1Nc1ncc(C(F)(F)F)c(Oc2cccc3c2C(=O)CC3)n1 Met

Please answer likewise for CN(C)[C@H]1CCN(c2cc(C(F)(F)F)c(C#N)c(Nc3cccc(CCC(=O)O)c3)n2)C1.O=C(O)C(F)(F)F Met

Please answer likewise for CCN1C(=O)C(c2cccc(C(=O)O)c2)C(=O)N(c2ccccc2)c2cc(C(F)(F)F)ccc21 (stereo not drawn) Not met

Please answer likewise for Cl.O=C(NCCN1CCC2(CC1)C(=O)NCN2c1cccc(F)c1)c1ccc2ccccc2c1 Met

* * *

Would you mind telling me the reported Growth Rate of each entry?
Tested on: HEK-293T
Test: Incucyte cell viability with HEK293T; further: unitless GR value; below 1 slowed growth and below 0 cell loss
Format: toxicity, cell-based
Conditions: human, 0 h, 10 µM, compound concentration 10 uM, replicate number 2

Could you share which Growth Rate value was measured for O=C1CCCN1CCNc1nc(Nc2ccc(Cl)c(Cl)c2)ncc1C(F)(F)F ? -1

Please answer likewise for CCCCCCCC/C=C\CCCCCCCC(=O)NCc1ccc(O)c(OC)c1 [OLVANIL] 0.7

Please answer likewise for CS(=O)(=O)O.C[C@H](NC(=O)c1cnc2n1[C@](C)(Cc1ccc(C#N)cc1)C(=O)N2c1cc(Cl)c(F)c(Cl)c1)C(=O)NC1(c2ccccn2)CC1 0.94

Please answer likewise for COc1ccc(F)c(F)c1C(=O)c1cnc(NC2CCN(S(C)(=O)=O)CC2)nc1N [RG-547] 0.15

Please answer likewise for CS(=O)(=O)c1cc(C2(NC(=O)c3cncc4c3cnn4-c3ccc(F)cc3)CC2)ccn1 [BI 639667] -0.17

Please answer likewise for COc1cc(N[C@@H]2CCCC[C@]2(O)C(F)(F)F)ccc1F [BAY-9897] 0.5

Please answer likewise for Oc1ccc(-c2nc(-c3ccncc3)c(-c3ccc(F)cc3)[nH]2)cc1 [SB-202190] -0.17

Please answer likewise for O=S(=O)(Nc1nnc2cc(OCC34CC5CC(CC(C5)C3)C4)c(C3CC3)cn12)C1CC1 0.41

* * *

Would you mind telling me the reported Growth Rate of each entry?
Test system: HEK-293T
Test: Incucyte cell viability with HEK293T; further: unitless GR value; below 1 slowed growth and below 0 cell loss
Format: toxicity, cell-based
Conditions: human, 18 h, 10 µM, compound concentration 10 uM, replicate number 2
// return a plain number; no unit text

# get_value(readout= Growth Rate, system= HEK-293T) for O=C(CNC(=O)c1ccc(-c2ccccc2)cc1)NC1CCCc2ccccc21 (stereo not given) 0.38

Please answer likewise for Cn1c(=O)n(CCCO)c(=O)c2c1nc(Oc1cccc(Cl)c1)n2Cc1ccc(Cl)cc1 0.84

Please answer likewise for O=C(O)c1ccc(OCCCc2ccc(OCCCCOC3CCCCC3)cc2)c(C(=O)NC2CCCC(C(=O)O)C2)c1 (stereo not given) 0.94

Please answer likewise for Cc1c(C(=O)NCCCN(C)C)sc2ncnc(Nc3ccc(F)cc3OC(C)CF)c12 (stereo not given) 0.14

Please answer likewise for CC/C(=C(\c1ccc(O)cc1)c1ccc(OCCN(C)C)cc1)c1ccccc1 -0.33
